Target: élastase de leucocytes humains (Homo sapiens, UniProt P08246)
Construct: purchased Elastin Products Co. SE 563; host or cells: human leukocytes, as the enzyme's name says
Sequence (P08246 30-267): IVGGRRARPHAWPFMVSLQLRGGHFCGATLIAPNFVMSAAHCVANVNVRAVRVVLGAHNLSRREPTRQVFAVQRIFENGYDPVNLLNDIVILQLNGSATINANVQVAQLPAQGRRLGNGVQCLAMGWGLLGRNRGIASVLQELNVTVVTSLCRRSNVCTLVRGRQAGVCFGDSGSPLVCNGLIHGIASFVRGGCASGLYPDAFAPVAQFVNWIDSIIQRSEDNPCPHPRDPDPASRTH
Experiment: Anti-elastase activity: release of p-nitroaniline from N-succinyl-(Ala)3-p-nitroanilide, spectrophotometry at 410 nm
Format: biochemical
Conditions: pH 8; Concentration 250 µM; 37°C, pH8, 5 min preincubation, substrate 250 µM; read-out: % I (%)
observation.type: inhibition at 250 µM (%)

Before answering, review these 3 worked examples.
{"molecule": "CCCCCCCCCCCCCCCC(=O)NC(CC)(CO)COC(=O)CCCCCCCCCCCCCCC (stereo not drawn)", "inhibition at 250 µM / %": 33}
{"molecule": "CCCCCCCCCCCCCCCC(=O)NC(CO)COC(=O)CCCCCCCCCCCCCCC (stereo not drawn)", "inhibition at 250 µM / %": 55}
{"molecule": "CCCCCCCCCCCCCCCC(=O)NC(C)(CO)COC(=O)CCCCCCCCCCCCCCC (stereo not drawn)", "inhibition at 250 µM / %": 8}

1. CCCCCCCCCCCCCCCCCC(=O)N[C@@H](CO)[C@H](O)[C@H](O)CCCCCCCCCCCCCC [Référence (b), N-stéaroyl-phytosphingosine, reference compound]
2. CCCCCCCCCCCCCCCCCC(=O)NC(CC)(CO)COC(=O)CCCCCCCCCCCCCCCCC (stereo not drawn)
Min inhibition at 250 µM? 1 | 2 Select an item and report its label.
1
(1: 44%, 2: 67%)

----------
Molecular target: élastase de leucocytes humains (Homo sapiens)
Construct: purchased Elastin Products Co. SE 563; host or cells: human leukocytes, as the enzyme's name says
Assay: Anti-elastase activity: release of p-nitroaniline from N-succinyl-(Ala)3-p-nitroanilide, spectrophotometry at 410 nm
Assay type: biochemical
Details: pH 8; Concentration 500 µM; 37°C, pH8, 5 min preincubation, substrate 250 µM; read-out: % I (%)
observation.type: inhibition at 500 µM (%)

Before answering, review these 3 worked examples.
{"compound": "CCCCCCCCCCCCCCCCCC(=O)N[C@@H](CO)[C@H](O)[C@H](O)CCCCCCCCCCCCCC [Référence (b), N-stéaroyl-phytosphingosine, reference compound]", "inhibition at 500 µM / %": 50}
{"compound": "CCCCCCCCCCCCCCCC(=O)NC(CO)COC(=O)CCCCCCCCCCCCCCC (stereo not drawn)", "inhibition at 500 µM / %": 66}
{"compound": "CCCCCCCCCCCCCCCC(=O)NC(CC)(CO)COC(=O)CCCCCCCCCCCCCCC (stereo not drawn)", "inhibition at 500 µM / %": 43}

P. CCCCCCCCCCCCCCCCCC(=O)NC(CC)(CO)COC(=O)CCCCCCCCCCCCCCCCC (stereo not drawn)
Q. CCCCCCCCCCCCCCCC(=O)NC(C)(CO)COC(=O)CCCCCCCCCCCCCCC (stereo not drawn)
Min inhibition at 500 µM? P | Q Select an item and report its label.
Q

----------
Test system: stratum corneum
Test: Skin barrier improvement: transepidermal (insensible) water loss (PIE), Servomed evaporimeter, cream applied to inner forearm
Type: in vivo, volontaires sains ayant une peau sèche
Conditions: t=3 heures after application; cream with 0,5 % (ex. 7, témoins), 1 % (ex. 4, 8), 5 % (ex. 6)
observation.type: Perte Insensible en Eau (PIE) M±s

Bench note: what Perte Insensible en Eau (PIE) M±s did CCCCCCCCCCCCCCCCCC(=O)NC(CO)(CO)COC(=O)CCCCCCCCCCCCCCCCC [Exemple 8] show?
4,62±1,14 g/m^2/heure

Bench note: what Perte Insensible en Eau (PIE) M±s did CCCCCCCCCCCCCCCCCC(=O)NC(CC)(CO)COC(=O)CCCCCCCCCCCCCCCCC (centres unmarked) [Exemple 4] show?
4,30±0,97 g/m^2/heure

----------
This listing pairs compounds with measured Indice d'Hydratation (IH) M±s.
Tested on: stratum corneum
Test: Skin hydration: capacitance measurement (Corneometer Courage+Khazaka CM 200), hydration index, cream applied to forearm
Format: in vivo, volontaires sains ayant une peau sèche
Details: t=3 heures after application; cream with 0,5 % (ex. 7, témoins), 1 % (ex. 4, 8), 5 % (ex. 6)

{"compound": "CCCCCCCCCCCCCCCCCC(=O)NC(CC)(CO)COC(=O)CCCCCCCCCCCCCCCCC (centres unmarked)", "result": "62,31±7,17"}
{"compound": "CCCCCCCCCCCCCCCCCC(=O)NC(CO)(CO)COC(=O)CCCCCCCCCCCCCCCCC", "result": "64,13±8,37"}
{"compound": "CCCCCCCCCCCCCCCCCC(=O)NC(C)(CO)COC(=O)CCCCCCCCCCCCCCCCC (centres unmarked)", "result": "63,82±7,05"}
{"compound": "CCCCCCCC/C=C\\CCCCCCCC(=O)NC(CC)(CO)COC(=O)CCCCCCC/C=C\\CCCCCCCC (centres unmarked)", "result": "67,05±5,61"}

Bench note: what Indice d'Hydratation (IH) M±s did CCCCCCCCCCCCCCCCCC(=O)N[C@@H](CO)[C@H](O)[C@H](O)CCCCCCCCCCCCCC [Témoin (b), N-stéaroyl phytosphingosine, reference compound] show?
63,20±5,36

----------
Test system: stratum corneum
Test: Skin barrier improvement: transepidermal (insensible) water loss (PIE), Servomed evaporimeter, cream applied to inner forearm
Assay type: in vivo, volontaires sains ayant une peau sèche
Details: t=3 heures after application; cream with 0,5 % (ex. 7, témoins), 1 % (ex. 4, 8), 5 % (ex. 6)
This listing pairs molecules with measured Perte Insensible en Eau (PIE) M±s.

Before answering, review these 2 worked examples.
{"molecule": "CCCCCCCCCCCCCCCCCC(=O)N[C@@H](CO)[C@H](O)[C@H](O)CCCCCCCCCCCCCC [Témoin (b), N-stéaroyl phytosphingosine, reference compound]", "result": "3,53±1,57 g/m^2/heure"}
{"molecule": "CCCCCCCC/C=C\\CCCCCCCC(=O)NC(CC)(CO)COC(=O)CCCCCCC/C=C\\CCCCCCCC (stereo not drawn)", "result": "3,39±1,20 g/m^2/heure"}

Attention now turns to another entry.
// lookup Perte Insensible en Eau (PIE) M±s | system=stratum corneum | key= CCCCCCCCCCCCCCCCCC(=O)NC(C)(CO)COC(=O)CCCCCCCCCCCCCCCCC (stereo not drawn)
3,70±1,50 g/m^2/heure
